B1: PLD5 (parent)
chain: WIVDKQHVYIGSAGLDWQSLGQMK

Variants of: B1
Experiment: protein stability index of a GFP-peptide fusion (GPS, HEK-293T) (PSI 1-6); higher = more stable;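 also: lentivirally expressed fusions sorted by FACS into six bins by GFP to DsRed ratio, PSI derived from sequencing read proportions per bin multiplied by bin number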
Settings: c terminus: a fixed tail appended
assay readout: protein stability index

- sequence string: "WIVDKQHVYIGSAGDDWQSLGQMK [L15D]"
  measured number: 1.92
- sequence string: "WIVDKQHVYFGSAGLDWQSLGQMK [I10F]"
  measured number: 2.26
- sequence string: "WIVDKQHVYIGSAGLDRQSLGQMK [W17R]"
  measured number: 1.9
- sequence string: "WIVTKQHVYIGSAGLDWQSLGQMK [D4T]"
  measured number: 4.09
- sequence string: "WIVDKHHVYIGSAGLDWQSLGQMK [Q6H]"
  measured number: 2.1
- sequence string: "WIVDKQHVYIGSAGLDSQSLGQMK [W17S]"
  measured number: 2.36
- sequence string: "WVVDKQHVYIGSAGLDWQSLGQMK [I2V]"
  measured number: 1.39
- sequence string: "WIVDIQHVYIGSAGLDWQSLGQMK [K5I]"
  measured number: 3.22
- sequence string: "WIVDKQHVAIGSAGLDWQSLGQMK [Y9A]"
  measured number: 2.33
- sequence string: "WIVDKQHVYIGSAGLDWQCLGQMK [S19C]"
  measured number: 2.62
- sequence string: "WIVDKQHVYIGSSGLDWQSLGQMK [A13S]"
  measured number: 2.14
- sequence string: "WIVDKQHPYIGSAGLDWQSLGQMK [V8P]"
  measured number: 2.06
- sequence string: "WIVDKQHVYIGSAGLDWQSLGQCK [M23C]"
  measured number: 2.21
- sequence string: "WIVDKQHVYIGSAGLDWQSLLQMK [G21L]"
  measured number: 2.88
- sequence string: "WIVDKQHVYIGSAGLDWQSRGQMK [L20R]"
  measured number: 2.13
- sequence string: "WIVDKQHVYVGSAGLDWQSLGQMK [I10V]"
  measured number: 1.92
- sequence string: "WIVDKQHVYIGSAGLDWQSLGQFK [M23F]"
  measured number: 1.69
- sequence string: "WIVDKQHVYIGSAGIDWQSLGQMK [L15I]"
  measured number: 1.31
- sequence string: "WIVDKQHVYIGSAGLDWQPLGQMK [S19P]"
  measured number: 1.29
- sequence string: "WIVDKQHVYIGSAGLDWQSYGQMK [L20Y]"
  measured number: 1.97
- sequence string: "WIVDKQHVYIGSNGLDWQSLGQMK [A13N]"
  measured number: 2.11
- sequence string: "WIVDKQHVYIGSAGLDWQSLGQVK [M23V]"
  measured number: 1.29
- sequence string: "WIVDKQHVYIYSAGLDWQSLGQMK [G11Y]"
  measured number: 3.22
- sequence string: "WIVDKQHTYIGSAGLDWQSLGQMK [V8T]"
  measured number: 1.81
- sequence string: "WIVDKQHVYIGSAGLDWQSLQQMK [G21Q]"
  measured number: 1.75
- sequence string: "WIVDKQHVYIGSAGLRWQSLGQMK [D16R]"
  measured number: 1.4
- sequence string: "WIVKKQHVYIGSAGLDWQSLGQMK [D4K]"
  measured number: 4.58
- sequence string: "WIVDKQAVYIGSAGLDWQSLGQMK [H7A]"
  measured number: 2.63
- sequence string: "WIVDKQHQYIGSAGLDWQSLGQMK [V8Q]"
  measured number: 2.11
- sequence string: "WTVDKQHVYIGSAGLDWQSLGQMK [I2T]"
  measured number: 1.46
- sequence string: "WWVDKQHVYIGSAGLDWQSLGQMK [I2W]"
  measured number: 1.86
- sequence string: "WIVDKQHVYIGSAGLDWGSLGQMK [Q18G]"
  measured number: 2.4
- sequence string: "WIVDKQHIYIGSAGLDWQSLGQMK [V8I]"
  measured number: 2.31
- sequence string: "WIVDKQHVYINSAGLDWQSLGQMK [G11N]"
  measured number: 2.32
- sequence string: "WIVDKQHVYIGSAGLDWQSLGQLK [M23L]"
  measured number: 2.12
- sequence string: "WIVDKQHVYIGSAGLDWQSLGQMS [K24S]"
  measured number: 3.37
- sequence string: "WIVDKQHVYIGSAGLDWQSLDQMK [G21D]"
  measured number: 2
- sequence string: "WIVDKNHVYIGSAGLDWQSLGQMK [Q6N]"
  measured number: 1.58
- sequence string: "WIVDKQHVYIGSAGLDWQSLGWMK [Q22W]"
  measured number: 2.11
- sequence string: "WIVDKQHVYIGSAGLDWQSLNQMK [G21N]"
  measured number: 2.41
- sequence string: "WIVDKQHVYIGSKGLDWQSLGQMK [A13K]"
  measured number: 1.96
- sequence string: "EIVDKQHVYIGSAGLDWQSLGQMK [W1E]"
  measured number: 2.24
- sequence string: "WIVDKQHVYIGSAGLDWQSKGQMK [L20K]"
  measured number: 2.17
- sequence string: "WIVDKAHVYIGSAGLDWQSLGQMK [Q6A]"
  measured number: 1.51
- sequence string: "WIVPKQHVYIGSAGLDWQSLGQMK [D4P]"
  measured number: 1.13
- sequence string: "WIVDKQHVYIGSAGLNWQSLGQMK [D16N]"
  measured number: 2.33
- sequence string: "WIVDKQHVYIGSAGLDWQSTGQMK [L20T]"
  measured number: 2.01
- sequence string: "WIVDKQHVCIGSAGLDWQSLGQMK [Y9C]"
  measured number: 1.54
- sequence string: "WINDKQHVYIGSAGLDWQSLGQMK [V3N]"
  measured number: 2.35
